assay: Metabolic stability in human hepatic microsome; type: in vitro ADME; settings: microsomes, pH 7.4; human hepatic microsome, NADPH(+); read-out: CL NADPH(+)
Starred links: 1 amine or outer side, 2 acyl side, 3 side chain; linkers in the order of their positions; H or OH if unused. Positions of bridges follow the written chain, without caps; N, C: chain ends. Non-standard residues stand in square brackets, D forms with d. Residues, ends and D or L forms follow the SMILES beside them. *: point of attachment. Phe(4-(CH2)5CO) = O=C([C@H](Cc1ccc(CCCCCC(=O)[*:3])cc1)N[*:1])[*:2]; NMeF = CN[C@@H](Cc1ccccc1)C(=O)O; NMeI = CC[C@H](C)[C@H](NC)C(=O)O; NMeL = CN[C@@H](CC(C)C)C(=O)O; NMeV = CN[C@H](C(=O)O)C(C)C; NMeA = CN[C@@H](C)C(=O)O; Piperidide = C1CCN(*)CC1; Sar = CNCC(=O)O
parameter: microsomal CLint at 1 uM

Consider the following illustrative entries.
molecule	microsomal CLint at 1 uM
CC[C@H](C)[C@H]1C(=O)N[C@@H](Cc2ccccc2)C(=O)N(C)[C@@H](Cc2ccccc2)C(=O)N[C@@H]([C@@H](C)O)C(=O)N2CCC[C@H]2C(=O)N[C@@H](CC(C)C)C(=O)N[C@H](C(=O)N2CCCCC2)Cc2ccc(cc2)CCCCCC(=O)N[C@@H](C(C)C)C(=O)N(C)CC(=O)N[C@@H](CC(C)C)C(=O)N(C)[C@@H](CC(C)C)C(=O)N[C@@H](C)C(=O)N1C [DP-895] (V[Sar]L[NMeL]A[NMeI]F[NMeF]TPL[Phe(4-(CH2)5CO)]-Piperidide; lactam N-12)	54 µL/min/mg
CC(C)C[C@@H]1NC(=O)[C@H](CC(C)C)N(C)C(=O)[C@H](C(C)C)N(C)C(=O)[C@H](C)NC(=O)CN(C)C(=O)[C@H](Cc2ccccc2)NC(=O)[C@H]([C@@H](C)O)NC(=O)[C@H](CC(C)C)N(C)C(=O)[C@H](C)N(C)C(=O)C[C@@H](C(=O)N2CCCCC2)NC(=O)[C@H](CC(C)C)N(C)C1=O [DP-479] ([NMeA][NMeL]TF[Sar]A[NMeV][NMeL]L[NMeL]D-Piperidide; lactam N-11)	183 µL/min/mg

Consider the molecule shown here: CC(C)C[C@H]1C(=O)N(C)[C@@H](Cc2ccccc2)C(=O)N(C)[C@@H](Cc2ccccc2)C(=O)N[C@@H]([C@@H](C)O)C(=O)N(C)[C@@H](C)C(=O)N(C)[C@@H](CC(C)C)C(=O)N[C@H](C(=O)N2CCCCC2)CC(=O)N(C)[C@@H](C)C(=O)N(C)[C@@H](CC(C)C)C(=O)N(C)[C@@H](CC(C)C)C(=O)N[C@@H](C)C(=O)N1C [DP-158] ([NMeA][NMeL][NMeL]A[NMeL][NMeF][NMeF]T[NMeA][NMeL]D-Piperidide; lactam N-11) What is its recorded microsomal CLint at 1 uM?
41 µL/min/mg

###

assay: Metabolic stability in human hepatic microsome; format: in vitro ADME; conditions: microsomes, pH 7.4; human hepatic microsome, NADPH(+); read-out: CL NADPH(+)
Starred links: 1 amine or outer side, 2 acyl side, 3 side chain; linkers in the order of their positions; H or OH if unused. Positions of bridges follow the written chain, without caps; N, C: chain ends. Non-standard residues stand in square brackets, D forms with d. Residues, ends and D or L forms follow the SMILES beside them. *: point of attachment. Phe(3-(CH2)4CO) = O=C([C@H](Cc1cccc(CCCCC(=O)[*:3])c1)N[*:1])[*:2]; NMeF = CN[C@@H](Cc1ccccc1)C(=O)O; NMeL = CN[C@@H](CC(C)C)C(=O)O; NMeV = CN[C@H](C(=O)O)C(C)C; NMeA = CN[C@@H](C)C(=O)O; Piperidide = C1CCN(*)CC1; dNMeA = CN[C@H](C)C(=O)O; Sar = CNCC(=O)O
parameter: microsomal CLint at 1 uM (µL/min/mg)
Answer in µL/min/mg, number only, no unit symbol.

compound	readout units	microsomal CLint at 1 uM
CC[C@H](C)[C@@H]1NC(=O)CCCCc2cccc(c2)C[C@@H](C(=O)N2CCCCC2)NC(=O)[C@H](Cc2ccccc2)N(C)C(=O)[C@H](CC(C)C)N(C)C(=O)CN(C)C(=O)[C@H]([C@@H](C)O)NC(=O)[C@H](C)N(C)C(=O)[C@H](C(C)C)N(C)C(=O)[C@H](C)NC(=O)[C@H](CC(C)C)N(C)C(=O)[C@H](Cc2ccccc2)N(C)C1=O [DP-886] (I[NMeF][NMeL]A[NMeV][NMeA]T[Sar][NMeL][NMeF][Phe(3-(CH2)4CO)]-Piperidide; lactam N-11)	µL/min/mg	162

We next turn to a different compound, shown below.
Consider the compound shown here: CC(C)C[C@H]1C(=O)N[C@@H](C(C)C)C(=O)N(C)[C@@H](C)C(=O)N(C)[C@@H](C)C(=O)N[C@@H]([C@@H](C)O)C(=O)N(C)[C@@H](C)C(=O)N[C@H](C(=O)N(C)[C@@H](Cc2ccccc2)C(=O)N(C)[C@@H](Cc2ccccc2)C(=O)N[C@@H](C)C(=O)N2CCCCC2)CC(=O)N(C)[C@H](C)C(=O)N(C)[C@@H](Cc2ccccc2)C(=O)N1C [DP-400] ([dNMeA][NMeF][NMeL]V[NMeA][NMeA]T[NMeA]D[NMeF][NMeF]A-Piperidide; lactam N-9) What is its recorded microsomal CLint at 1 uM?
24
